// data source = patent US20260000692A1

- System Name: CDK12 (Homo sapiens)
- Sequence (Q9NYV4 whole entry): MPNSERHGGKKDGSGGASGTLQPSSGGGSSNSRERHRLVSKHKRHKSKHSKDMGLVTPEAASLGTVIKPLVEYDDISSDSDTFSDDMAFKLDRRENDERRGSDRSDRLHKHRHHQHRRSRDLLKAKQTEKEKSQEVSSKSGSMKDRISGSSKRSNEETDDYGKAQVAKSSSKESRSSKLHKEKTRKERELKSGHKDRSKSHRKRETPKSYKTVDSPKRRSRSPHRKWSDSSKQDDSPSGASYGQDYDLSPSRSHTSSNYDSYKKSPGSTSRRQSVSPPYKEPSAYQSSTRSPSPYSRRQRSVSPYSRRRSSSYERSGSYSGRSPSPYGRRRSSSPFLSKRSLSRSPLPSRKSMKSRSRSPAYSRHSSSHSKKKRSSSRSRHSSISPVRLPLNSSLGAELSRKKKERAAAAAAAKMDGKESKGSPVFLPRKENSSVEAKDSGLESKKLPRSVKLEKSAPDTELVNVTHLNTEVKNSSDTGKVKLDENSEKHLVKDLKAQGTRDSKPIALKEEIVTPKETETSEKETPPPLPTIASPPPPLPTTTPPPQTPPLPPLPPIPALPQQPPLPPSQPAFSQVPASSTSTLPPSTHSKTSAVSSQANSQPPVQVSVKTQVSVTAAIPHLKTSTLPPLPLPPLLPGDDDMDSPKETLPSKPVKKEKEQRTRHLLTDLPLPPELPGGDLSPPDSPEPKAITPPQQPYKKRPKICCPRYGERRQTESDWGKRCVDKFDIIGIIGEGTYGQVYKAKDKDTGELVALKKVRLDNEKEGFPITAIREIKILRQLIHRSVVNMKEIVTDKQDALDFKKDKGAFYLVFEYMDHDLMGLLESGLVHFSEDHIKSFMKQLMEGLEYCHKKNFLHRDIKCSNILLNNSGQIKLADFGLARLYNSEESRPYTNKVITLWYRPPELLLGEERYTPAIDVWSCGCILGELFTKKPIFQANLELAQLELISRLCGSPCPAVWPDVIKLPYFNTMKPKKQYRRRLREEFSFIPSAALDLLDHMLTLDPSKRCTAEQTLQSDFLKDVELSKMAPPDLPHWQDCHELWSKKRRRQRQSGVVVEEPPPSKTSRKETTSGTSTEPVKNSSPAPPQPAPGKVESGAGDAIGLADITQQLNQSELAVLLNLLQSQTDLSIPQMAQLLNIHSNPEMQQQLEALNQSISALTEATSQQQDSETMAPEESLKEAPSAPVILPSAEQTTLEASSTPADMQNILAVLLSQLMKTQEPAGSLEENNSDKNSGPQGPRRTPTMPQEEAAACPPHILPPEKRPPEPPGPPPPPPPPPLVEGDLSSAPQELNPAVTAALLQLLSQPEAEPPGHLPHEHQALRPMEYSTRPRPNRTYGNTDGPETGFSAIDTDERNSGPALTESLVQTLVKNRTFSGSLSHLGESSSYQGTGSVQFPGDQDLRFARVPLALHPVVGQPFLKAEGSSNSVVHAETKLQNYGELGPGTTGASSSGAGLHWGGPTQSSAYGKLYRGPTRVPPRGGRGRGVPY
- Sequence (O75909 whole entry partner): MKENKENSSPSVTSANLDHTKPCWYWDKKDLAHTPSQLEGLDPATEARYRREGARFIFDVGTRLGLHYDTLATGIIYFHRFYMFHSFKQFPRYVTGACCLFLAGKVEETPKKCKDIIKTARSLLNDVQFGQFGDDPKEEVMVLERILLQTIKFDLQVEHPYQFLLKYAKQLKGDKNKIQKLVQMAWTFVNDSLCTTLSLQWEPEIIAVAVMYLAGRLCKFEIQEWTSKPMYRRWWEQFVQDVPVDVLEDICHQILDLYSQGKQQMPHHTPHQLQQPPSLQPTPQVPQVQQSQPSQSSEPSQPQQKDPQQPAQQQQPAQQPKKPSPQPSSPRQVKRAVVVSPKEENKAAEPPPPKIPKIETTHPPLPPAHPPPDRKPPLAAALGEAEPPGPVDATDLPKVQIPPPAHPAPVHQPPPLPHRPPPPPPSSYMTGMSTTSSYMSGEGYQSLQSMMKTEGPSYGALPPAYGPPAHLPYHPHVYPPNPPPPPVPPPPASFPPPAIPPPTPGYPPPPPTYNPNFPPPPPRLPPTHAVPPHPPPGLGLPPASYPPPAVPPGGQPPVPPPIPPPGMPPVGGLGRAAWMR
- Assay Notes: Biochemical assay for CDK12 (LANCE TR-FRET, IC50 determination)
- Measurement Parameters: CDK12, IC50 class; read-out: IC50 μM (in range)
Reported Metric: IC50

> print(dat)
                                    compound  reported.metric          result
 1  N#CN1CCCC(c2ccc(CC(=O)Nc3cc(O[C@@H]4CCOC4)c(Cl)cn3)cn2)C1 (single isomer, unassigned) [Compound 94]             IC50  0.01 to 0.1 µM
 2  N#Cc1cc(-c2ccc(CC(=O)Nc3cc(O[C@@H]4CCOC4)c(Cl)cn3)cn2)ccn1             IC50  0.01 to 0.1 µM
 3  N#Cc1ccc(-c2ccc(CC(=O)Nc3cc(O[C@@H]4CCOC4)c(Cl)cn3)cn2)cn1             IC50  0.01 to 0.1 µM
 4  COc1cc(NC(=O)C(C)c2ccc(C3=CCCN(C#N)C3)nc2)ncc1Cl (single isomer, unassigned) [Compound 49]             IC50       < 0.01 µM
 5  CN1CC[C@@H](Oc2cc(NC(=O)Cc3ccc(C4=CCCN(C#N)C4)nc3)ncc2Cl)C1             IC50       < 0.01 µM
 6  N#CN1CC=C(c2ccc(CC(=O)Nc3cc(OC4CCOCC4)c(Cl)cn3)cn2)CC1             IC50       < 0.01 µM
 7  CC(C)Oc1cc(NC(=O)Cc2ccc(C3=CCN(C#N)CC3)nc2)ncc1Cl             IC50       < 0.01 µM
 8  CN1CC[C@H](Oc2cc(NC(=O)Cc3ccc(C4=CCCN(C#N)C4)nc3)ncc2Cl)C1             IC50  0.01 to 0.1 µM
 9  N#CN1CCC=C(c2ccc(CC(=O)Nc3cnc(Cl)cn3)cn2)C1             IC50  0.01 to 0.1 µM
10  CNC(=O)C(C)Oc1cc(NC(=O)Cc2ccc(C3CCCN(C#N)C3)nc2)ncc1Cl (single isomer, unassigned) [Compound 86]             IC50        > 0.1 µM
11  CN1CCC(Oc2cc(NC(=O)Cc3ccc(C4CCN(C#N)CC4)nc3)ncc2Cl)CC1             IC50  0.01 to 0.1 µM
12  CN1CCC[C@H](Oc2cc(NC(=O)Cc3ccc(C4=CCCN(C#N)C4)nc3)ncc2Cl)C1             IC50  0.01 to 0.1 µM
13  CN1CCCC1COc1cc(NC(=O)Cc2ccc(C3=CCCN(C#N)C3)nc2)ncc1Cl (centres unmarked)             IC50        > 0.1 µM
14  N#CN1CCC=C(c2ccc(CC(=O)Nc3cc(OC4CCCOC4)c(Cl)cn3)cn2)C1 (single isomer, unassigned) [Compound 44]             IC50       < 0.01 µM
15  N#CN1CCC=C(c2ccc(CC(=O)Nc3cc(O[C@@H]4CCOC4)c(Cl)cn3)cn2)C1             IC50       < 0.01 µM
16  CC(C)(O)c1cc(NC(=O)Cc2ccc(C3=CCN(C#N)CC3)nc2)ncc1Cl             IC50       < 0.01 µM
17  CP(C)(=O)c1cc(NC(=O)Cc2ccc(C3=CCCN(C#N)C3)nc2)ncc1Cl             IC50        > 0.1 µM
18  COc1cc(CC(=O)Nc2cc(O[C@@H]3CCOC3)c(Cl)cn2)cnc1C1CCN(C#N)CC1             IC50       < 0.01 µM
19  CN1CCC[C@@H](Oc2cc(NC(=O)Cc3ccc(C4CCN(C#N)CC4)nc3)ncc2Cl)C1             IC50        > 0.1 µM
20  N#CN1CCC=C(c2ccc(CC(=O)Nc3cc(Cl)c(Cl)cn3)cn2)C1             IC50       < 0.01 µM
21   N#CN1CCC=C(c2ccc(CC(=O)Nc3ccccn3)cn2)C1             IC50        > 0.1 µM
22  COc1cc(NC(=O)Cc2ccc(C3=CC4CCC(C3)N4C#N)nc2)ncc1Cl (centres unmarked)             IC50       < 0.01 µM
23  COc1cc(NC(=O)Cc2ccc(-c3cc(N4CC5CC4CN5C)cc(C#N)n3)nc2)ncc1Cl (centres unmarked)             IC50  0.01 to 0.1 µM
24  N#Cc1ncc(-c2ccc(CC(=O)Nc3cc(O[C@@H]4CCOC4)c(Cl)cn3)cn2)cn1             IC50  0.01 to 0.1 µM
25  COc1cc(NC(=O)Cc2ccc(C3CCCN(C#N)C3)nc2)ncc1Cl (centres unmarked) [Compound 78]             IC50  0.01 to 0.1 µM
26  COc1cc(NC(=O)Cc2ccc(C3CC4CN(C#N)CC4C3)nc2)ncc1Cl (centres unmarked)             IC50       < 0.01 µM
